Values were extracted from PubChem BioAssay (NCI).

system: NCI-H522 lung; experiment: NCI tumour cell line growth inhibition, 48 h; in the data active means GI50 below about 0.43 µM; inactive means the rest
Answer with one of the outcomes active, inactive

Q: Hello, I am checking results. What call was entered for Cc1c2c[n+](C(C)C)ccc2c(C)c2c1[nH]c1ccccc12 ?
Result: inactive

Q: Hello, I am checking results. What call was entered for CN1CCN(Cc2ccc(NC(=O)c3ccc(C#Cc4c(N)ncc5ccc(F)cc45)cc3)cc2C(F)(F)F)CC1 ?
Result: inactive

Q: Hello, I am checking results. What call was entered for C=C1C(=O)O[C@H]2[C@H]1CC/C(COC(=O)NCCc1c[nH]c3ccc(OC)cc13)=C\CC[C@@]1(C)O[C@@H]21 ?
Result: inactive

Q: Hello, I am checking results. What call was entered for COc1cc(-c2nc3sc4c(c3c(=O)[nH]2)CCCCCC4)cc(OC)c1OC ?
Result: inactive

Q: Hello, I am checking results. What call was entered for O=C(O)c1cc2cc(OCc3ccccc3)c(OCc3ccccc3)cc2[nH]1 ?
Result: inactive

Q: Hello, I am checking results. What call was entered for Cc1cc(C)c(O)c(CN(C)Cc2cc(Cl)cc(Cl)c2O)c1 ?
Result: inactive

Q: Hello, I am checking results. What call was entered for C=CC1CC12C(=O)C1OC2(C)C2C(=O)c3c(O)ccc(O)c3C(=O)C12 (stereo not given) ?
Result: inactive

Q: Hello, I am checking results. What call was entered for c1cn2cc(-c3ccc4cn[nH]c4c3)nc(Nc3ccc(N4CCOCC4)cc3)c2n1 ?
Result: inactive

Q: Hello, I am checking results. What call was entered for c1ccc(-n2nnnc2-c2cccc3ccccc23)cc1 ?
Result: active

From here, focus on the item given below.
Q: Hello, I am checking results. What call was entered for CSc1ccc2c3c(n(C[C@H](O)CO)c(=O)c2c1)-c1ccccc1C3=O ?
Result: inactive

====

tested on: HS 578T breast; experiment: NCI tumour cell line growth inhibition, 48 h
I'd be grateful if you could share measured GI50 for these entries.

// solved cases for GI50 follow
Q: Please look up its GI50: C=C1C(=O)O[C@H]2[C@H]1CC/C(COC(=O)NCCc1c[nH]c3ccc(OC)cc13)=C\CC[C@@]1(C)O[C@@H]21
Result: 6420 nM

Q: Please look up its GI50: CC(C)NC(=O)OCc1c(COC(=O)NC(C)C)c(-c2ccc(Cl)cc2)n2c1CCC2
Result: 2910 nM

Q: Please look up its GI50: COc1ccc2c(c1)C(=O)/C(=C/c1ncc([N+](=O)[O-])n1C)O2
Result: 740 nM

Now for a further compound.
Q: Please look up its GI50: C#Cc1c(C(N)=O)ncn1C1OC(COP(=O)(OCc2ccc([N+](=O)[O-])o2)N(C)CCCCCl)C(O)C1O (centres undefined)
Result: > 100000 nM

====

test system: CAKI-1 renal; assay: NCI tumour cell line growth inhibition, 48 h
Label scheme for TGI: lower than 20 µM is not satisfied, 20 µM and above is satisfied.

Q: Dear colleague, could you confirm whether COc1cccc(N(CN2CC=CC2=O)C(C)=O)c1 has TGI at or above 20 µM?
Result: satisfied

Further cases:
Q: Dear colleague, could you confirm whether CCOC(=O)C(=Cc1ccc(C(=O)OC)cc1)C(=O)OCC has TGI at or above 20 µM?
Result: not satisfied

Q: Dear colleague, could you confirm whether CCOC(=O)/C=C(/C(=O)OCC)n1cc(C)c(=O)n(Cc2cn(COCCOC(C)=O)nn2)c1=O has TGI at or above 20 µM?
Result: satisfied

Q: Dear colleague, could you confirm whether C=CCSC1=N/C(=C\c2ccccc2)C(=O)N1CC=C has TGI at or above 20 µM?
Result: satisfied
